Cited source: ChEMBL document CHEMBL5058577

- Test system: Fibroblast
- method notes: Multiplex assay against human fibroblast
- Format: toxicity, cell-based
- condition summary: 24 h, 10 µM, compound concentration 10 uM, replicate 1
measurement kind: Total Cell Count
Answer with a bare number; do not write a unit.

Lab note: need Total Cell Count for `Cc1c(CC(=O)O)c2cccnc2n1Cc1ccc(S(C)(=O)=O)cc1C(F)(F)F` on Fibroblast, anyone have it?
130

Lab note: need Total Cell Count for Cc1sc2c(c1C)C(c1ccc(Cl)cc1)=N[C@@H](CC(=O)NCCCCCCCCNC(=O)COc1cccc3c1C(=O)N(C1CCC(=O)NC1=O)C3=O)c1nnc(C)n1-2 (stereo partly specified) on Fibroblast, anyone have it?
154

Lab note: need Total Cell Count for `CC(C)COc1ccc(CNC(=O)N(Cc2ccc(F)cc2)C2CCN(C)CC2)cc1` on Fibroblast, anyone have it?
170

Lab note: need Total Cell Count for `Cc1onc(-c2ccccc2Cl)c1C(=O)N(C)c1ccc(Cl)cc1` on Fibroblast, anyone have it?
134

Lab note: need Total Cell Count for Cl.N=C(N)NC(=O)Cc1c(Cl)cccc1Cl [GUANFACINE HYDROCHLORIDE] on Fibroblast, anyone have it?
137

Lab note: need Total Cell Count for `CN1CCN(c2cc(-c3ccccc3)nc(N)n2)CC1` on Fibroblast, anyone have it?
213

###

- Tested on: HEK-293T
- method notes: Multiplex assay against HEK293T
- Format: toxicity, cell-based
- condition summary: human, 48 h, 1 µM, compound concentration 1 uM, replicate 2
Kind request: treat 60% as inclusive, so Population Mitotic Cells (%) at 60% or higher is 1, anything lower is -1.

Please check the record COC[C@@H](c1ccc(C(F)(F)F)cc1)N1CCN(C2(C)CCN(C(=O)c3c(C)ncnc3C)CC2)C[C@@H]1C.O=C(O)/C=C\C(=O)O [VICRIVIROC MALEATE] and state if its Population Mitotic Cells (%) is at or above 60%.
1

Please check the record `COc1cccc2c1c(NS(=O)(=O)c1ccc(Cl)s1)nn2Cc1cccc(CNC(=O)C(C)(C)O)c1` and state if its Population Mitotic Cells (%) is at or above 60%.
1

Please check the record `N#Cc1cc(F)cc(-c2nc(-c3ccc(F)cn3)no2)c1` and state if its Population Mitotic Cells (%) is at or above 60%.
1

Please check the record Cl.N=C(N)NC(=O)Cc1c(Cl)cccc1Cl [GUANFACINE HYDROCHLORIDE] and state if its Population Mitotic Cells (%) is at or above 60%.
1

Please check the record `O=C1[C@H](Cc2ccc(O)cc2)N2C(=O)CCN(C(=O)NCc3ccccc3)[C@H]2CN1Cc1cccc2ccccc12` and state if its Population Mitotic Cells (%) is at or above 60%.
-1

Please check the record `CN1CCN(c2cc(-c3ccccc3)nc(N)n2)CC1` and state if its Population Mitotic Cells (%) is at or above 60%.
1

Please check the record `CCCCC1=NC2(CCCC2)C(=O)N1Cc1ccc(-c2ccccc2-c2nnn[nH]2)cc1` and state if its Population Mitotic Cells (%) is at or above 60%.
1

Please check the record `Cc1c(CC(=O)O)c2cccnc2n1Cc1ccc(S(C)(=O)=O)cc1C(F)(F)F` and state if its Population Mitotic Cells (%) is at or above 60%.
1

Please check the record `CC[C@@H](C)Nc1nc(C)nc2c(-c3ccc(OC)nc3C)c(C)nn12` and state if its Population Mitotic Cells (%) is at or above 60%.
-1

Please check the record `C[C@H](N)COC(=O)[C@@H](CCCCN)NC(=O)Cc1c(-c2ccc3ccccc3c2)[nH]c2c1ccc1ccccc12` and state if its Population Mitotic Cells (%) is at or above 60%.
1

Please check the record `CC(C)COc1ccc(CNC(=O)N(Cc2ccc(F)cc2)C2CCN(C)CC2)cc1` and state if its Population Mitotic Cells (%) is at or above 60%.
-1

Please check the record `CC(/C=C1\SC(=S)N(CCCC(=O)Nc2ccc(C(=O)O)c(O)c2)C1=O)=C\c1ccccc1` and state if its Population Mitotic Cells (%) is at or above 60%.
1

Please check the record CCCCCC(O)/C=C/[C@H]1C(=O)CC(O)C1C/C=C\CCCC(=O)O (some centres not stated) and state if its Population Mitotic Cells (%) is at or above 60%.
1

Please check the record `Cc1cccc(NC(=O)CN2CCC(c3ccccn3)CC2)c1.Cl.Cl` and state if its Population Mitotic Cells (%) is at or above 60%.
-1

Please check the record Cl.NCCc1ccc(O)c(O)c1 [DOPAMINE HYDROCHLORIDE] and state if its Population Mitotic Cells (%) is at or above 60%.
1

Please check the record Cc1sc2c(c1C)C(c1ccc(Cl)cc1)=N[C@@H](CC(=O)NCCCCCCCCNC(=O)COc1cccc3c1C(=O)N(C1CCC(=O)NC1=O)C3=O)c1nnc(C)n1-2 (some centres not stated) and state if its Population Mitotic Cells (%) is at or above 60%.
-1

Please check the record `CN(C)C(=O)Cn1cc(-c2ccc(-c3cncc4ccccc34)cc2)cn1` and state if its Population Mitotic Cells (%) is at or above 60%.
-1

Please check the record `CC(C)c1noc(N2CCC(COc3ccc(-c4ccc(S(C)(=O)=O)cc4)nc3)CC2)n1` and state if its Population Mitotic Cells (%) is at or above 60%.
1

Please check the record `Cc1noc(-c2ccc(-c3ccc(CC(=O)O)cc3)cc2)c1NC(=O)O[C@H](C)c1ccccc1Cl` and state if its Population Mitotic Cells (%) is at or above 60%.
1

Please check the record `N#Cc1c(Oc2cccc(OS(=O)(=O)CCCC(F)(F)F)c2)cccc1C(F)(F)F` and state if its Population Mitotic Cells (%) is at or above 60%.
-1

Please check the record `Cc1cnc(-c2cc(N3CCN(C(=O)CCS(C)(=O)=O)CC3)ncc2Cl)c(C)c1` and state if its Population Mitotic Cells (%) is at or above 60%.
1

Please check the record Br.CS(=O)(=O)Nc1c(O)ccc2c1CCCC2C1=NCCN1 (configuration not stated) and state if its Population Mitotic Cells (%) is at or above 60%.
1

Please check the record O=C(NCCN1CCC(n2c(=O)[nH]c3cc(Cl)ccc32)CC1)c1ccc(F)cc1 [HALOPEMIDE] and state if its Population Mitotic Cells (%) is at or above 60%.
1

Please check the record `CCCCC(=O)N(Cc1ccc(-c2ccccc2-c2nnn[nH]2)cc1)[C@H](C(=O)O)C(C)C` and state if its Population Mitotic Cells (%) is at or above 60%.
1

Please check the record `Cc1onc(-c2ccccc2Cl)c1C(=O)N(C)c1ccc(Cl)cc1` and state if its Population Mitotic Cells (%) is at or above 60%.
1

Please check the record `NCCc1cn(S(=O)(=O)c2c(Cl)nc3sccn23)c2ccccc12.O=C(O)C(=O)O` and state if its Population Mitotic Cells (%) is at or above 60%.
-1

###

- Tested on: Fibroblast
- method notes: Multiplex assay against human fibroblast
- Type: toxicity, cell-based
- condition summary: 48 h, 1 µM, compound concentration 1 uM, replicate 1
Consider the following compounds; for each one, report its Population Membrane Permeable-Phenotype (%).
Output should be the measured figure followed by the unit it is expressed in.

Requested read-out: Population Membrane Permeable-Phenotype (%). Entry: `O=C1[C@H](Cc2ccc(O)cc2)N2C(=O)CCN(C(=O)NCc3ccccc3)[C@H]2CN1Cc1cccc2ccccc12`
2%

Requested read-out: Population Membrane Permeable-Phenotype (%). Entry: `N#Cc1c(Oc2cccc(OS(=O)(=O)CCCC(F)(F)F)c2)cccc1C(F)(F)F`
1%

Requested read-out: Population Membrane Permeable-Phenotype (%). Entry: `CCCOc1ccc2[nH]cc(C3=CCNCC3)c2n1.Cl`
0%

Requested read-out: Population Membrane Permeable-Phenotype (%). Entry: CC(C)c1noc(N2CCC(COc3ccc(-c4ccc(S(C)(=O)=O)cc4)nc3)CC2)n1 [GSK-1292263]
0%

Requested read-out: Population Membrane Permeable-Phenotype (%). Entry: `O=C(CCCc1ccccc1)Nc1nc2ccccc2c(=O)s1`
1%

Requested read-out: Population Membrane Permeable-Phenotype (%). Entry: Cl.N=C(N)NC(=O)Cc1c(Cl)cccc1Cl [GUANFACINE HYDROCHLORIDE]
0%

Requested read-out: Population Membrane Permeable-Phenotype (%). Entry: `C[C@H](N)COC(=O)[C@@H](CCCCN)NC(=O)Cc1c(-c2ccc3ccccc3c2)[nH]c2c1ccc1ccccc12`
0%

Requested read-out: Population Membrane Permeable-Phenotype (%). Entry: COC[C@@H](c1ccc(C(F)(F)F)cc1)N1CCN(C2(C)CCN(C(=O)c3c(C)ncnc3C)CC2)C[C@@H]1C.O=C(O)/C=C\C(=O)O [VICRIVIROC MALEATE]
0%

###

Consider the following molecules; for each one, report its Population Hoechst High Intensity Objects (%).
- System: HEK-293T
- method notes: Multiplex assay against HEK293T
- Format: toxicity, cell-based
- condition summary: human, 12 h, 10 µM, compound concentration 10 uM, replicate 1
The response must be a number in % with no trailing unit.

Lab note: need Population Hoechst High Intensity Objects (%) for Cl.N=C(N)NC(=O)Cc1c(Cl)cccc1Cl [GUANFACINE HYDROCHLORIDE] on HEK-293T, anyone have it?
7

Lab note: need Population Hoechst High Intensity Objects (%) for `N#Cc1c(Oc2cccc(OS(=O)(=O)CCCC(F)(F)F)c2)cccc1C(F)(F)F` on HEK-293T, anyone have it?
10

Lab note: need Population Hoechst High Intensity Objects (%) for `COc1ccccc1N1CCN(C[C@@H](C(=O)NC(C)(C)C)c2ccccc2)CC1.Cl.Cl` on HEK-293T, anyone have it?
7

Lab note: need Population Hoechst High Intensity Objects (%) for `Cc1onc(-c2ccccc2Cl)c1C(=O)N(C)c1ccc(Cl)cc1` on HEK-293T, anyone have it?
12

Lab note: need Population Hoechst High Intensity Objects (%) for `O=C(CCCc1ccccc1)Nc1nc2ccccc2c(=O)s1` on HEK-293T, anyone have it?
9

Lab note: need Population Hoechst High Intensity Objects (%) for `CCc1cc2cc(NS(=O)(=O)c3ccc(C#N)cc3)ccc2n(CC)c1=O` on HEK-293T, anyone have it?
7

Lab note: need Population Hoechst High Intensity Objects (%) for `Cc1cnc(-c2cc(N3CCN(C(=O)CCS(C)(=O)=O)CC3)ncc2Cl)c(C)c1` on HEK-293T, anyone have it?
10

Lab note: need Population Hoechst High Intensity Objects (%) for `Cc1cccc(NC(=O)CN2CCC(c3ccccn3)CC2)c1.Cl.Cl` on HEK-293T, anyone have it?
9

Lab note: need Population Hoechst High Intensity Objects (%) for `CCCOc1ccc2[nH]cc(C3=CCNCC3)c2n1.Cl` on HEK-293T, anyone have it?
10

Lab note: need Population Hoechst High Intensity Objects (%) for O=C(NCCN1CCC(n2c(=O)[nH]c3cc(Cl)ccc32)CC1)c1ccc(F)cc1 [HALOPEMIDE] on HEK-293T, anyone have it?
14

Lab note: need Population Hoechst High Intensity Objects (%) for `CN(C)C(=O)Cn1cc(-c2ccc(-c3cncc4ccccc34)cc2)cn1` on HEK-293T, anyone have it?
6

Lab note: need Population Hoechst High Intensity Objects (%) for `CC(/C=C1\SC(=S)N(CCCC(=O)Nc2ccc(C(=O)O)c(O)c2)C1=O)=C\c1ccccc1` on HEK-293T, anyone have it?
7

Lab note: need Population Hoechst High Intensity Objects (%) for CN[C@@H](C)C(=O)N[C@H](C(=O)N1CCC[C@H]1C(=O)Nc1snnc1-c1ccccc1)C1CCCCC1 [GDC-0152] on HEK-293T, anyone have it?
13

Lab note: need Population Hoechst High Intensity Objects (%) for CC(=O)Nc1cccc2c1c(Sc1ccc(Cl)cc1)c(C)n2CC(=O)O [AZD1981] on HEK-293T, anyone have it?
7

Lab note: need Population Hoechst High Intensity Objects (%) for Cc1sc2c(c1C)C(c1ccc(Cl)cc1)=N[C@@H](CC(=O)NCCCCCCCCNC(=O)COc1cccc3c1C(=O)N(C1CCC(=O)NC1=O)C3=O)c1nnc(C)n1-2 (some centres undefined) on HEK-293T, anyone have it?
14

Lab note: need Population Hoechst High Intensity Objects (%) for CC(C)(C)c1cc(NC(=O)Nc2ccc(-c3cn4c(n3)sc3cc(OCCN5CCOCC5)ccc34)cc2)no1 [QUIZARTINIB] on HEK-293T, anyone have it?
23

Lab note: need Population Hoechst High Intensity Objects (%) for CCCCCC(O)/C=C/[C@H]1C(=O)CC(O)C1C/C=C\CCCC(=O)O (some centres undefined) on HEK-293T, anyone have it?
9

Lab note: need Population Hoechst High Intensity Objects (%) for `C[C@H](N)COC(=O)[C@@H](CCCCN)NC(=O)Cc1c(-c2ccc3ccccc3c2)[nH]c2c1ccc1ccccc12` on HEK-293T, anyone have it?
11

Lab note: need Population Hoechst High Intensity Objects (%) for `CCCCC(=O)N(Cc1ccc(-c2ccccc2-c2nnn[nH]2)cc1)[C@H](C(=O)O)C(C)C` on HEK-293T, anyone have it?
5
